Just for reference, the Immune Epitope Database (IEDB) is where these values come from.

Please provide measured pIC50 for the entries that follow.
target-of-assay: HLA-B*15:01
procedure-text: IEDB peptide-MHC binding, purified MHC/competitive/fluorescence; bounds were set here for any values at or beyond the usual limits of such assays
condition-parameters: source organism: Vaccinia virus
Give bare numbers, as −log10 of the molar value.

{"sequence-chain": "LETDLRSEF", "target-of-assay": "HLA-B*15:01", "data-value": 4.32}

Now let's try a different one.
For VFAPKQKMF the sequence record lists pIC50 as 4.85

---

target-of-assay: HLA-A*26:01
procedure-text: IEDB peptide-MHC binding, purified MHC/direct/fluorescence; filed as Kd, often an IC50 or EC50 that approximates it; bounds were set here for any values at or beyond the usual limits of such assays
condition-parameters: source organism: Pasteurella multocida
readout-label: Kd

sequence NNKSRLVAF , Kd observed: ≥ 20 µM

---

Would you mind telling me the reported pKd of each entry?
target-of-assay: HLA-A*11:01
procedure-text: IEDB peptide-MHC binding, purified MHC/direct/fluorescence; filed as Kd, often an IC50 or EC50 that approximates it; bounds were set here for any values at or beyond the usual limits of such assays
condition-parameters: source organism: Brucella melitensis
pKd: −log10 of the molar value.

{"sequence-chain": "ALFEDYPGC", "pKd": "≤ 4.70"}

Now look at this one.
// CTDPPLLSV : pKd value = ≤ 4.70

---

target-of-assay: HLA-B*27:03
procedure-text: IEDB peptide-MHC binding, purified MHC/competitive/fluorescence; filed as Kd, often an IC50 or EC50 that approximates it; bounds were set here for any values at or beyond the usual limits of such assays
condition-parameters: source organism: Escherichia coli
readout-label: Kd

Reported Kd ( MFWKLPPWL ) = ≥ 20 µM

---

target-of-assay: HLA-A*31:01
procedure-text: IEDB peptide-MHC binding, purified MHC/direct/fluorescence; filed as Kd, often an IC50 or EC50 that approximates it; bounds were set here for any values at or beyond the usual limits of such assays
condition-parameters: source organism: Escherichia coli O157:H7
pKd: −log10 of the molar value.
readout-label: pKd

{"sequence-chain": "RGRGVAIHR", "pKd": 8.18}
{"sequence-chain": "RPPRRGDKF", "pKd": "≤ 4.70"}

// field: pKd; key: ITIPIGLYL ; value = ≤ 4.70

---

target-of-assay: HLA-B*44:02
procedure-text: IEDB peptide-MHC binding, purified MHC/direct/fluorescence; filed as Kd, often an IC50 or EC50 that approximates it; bounds were set here for any values at or beyond the usual limits of such assays
condition-parameters: source organism: Marburg virus - Musoke, Kenya, 1980
readout-label: Kd

// Kd lookup, sequence = AEALLADGL , result: ≥ 10 µM

---

target-of-assay: HLA-B*51:01
procedure-text: IEDB peptide-MHC binding, purified MHC/competitive/fluorescence; filed as Kd, often an IC50 or EC50 that approximates it; bounds were set here for any values at or beyond the usual limits of such assays
condition-parameters: source organism: Zaire ebolavirus
pKd: −log10 of the molar value.
readout-label: pKd

Query LSDAIFDDL yields pKd of ≤ 4.70

---

target-of-assay: HLA-B*45:06
procedure-text: IEDB peptide-MHC binding, purified MHC/competitive/fluorescence; filed as Kd, often an IC50 or EC50 that approximates it; bounds were set here for any values at or beyond the usual limits of such assays
condition-parameters: source organism: dengue virus type 4
pKd: −log10 of the molar value.
readout-label: pKd

Input STMPLVMAW . Output pKd: ≤ 5.30

---

target-of-assay: HLA-B*39:01
procedure-text: IEDB peptide-MHC binding, purified MHC/competitive/fluorescence; filed as Kd, often an IC50 or EC50 that approximates it; bounds were set here for any values at or beyond the usual limits of such assays
condition-parameters: source organism: Entamoeba histolytica HM-1:IMSS
pKd: −log10 of the molar value.
readout-label: pKd

Measured pKd of KTFEWGVFY : ≤ 4.70

---

target-of-assay: HLA-A*23:01
procedure-text: IEDB peptide-MHC binding, purified MHC/direct/fluorescence; filed as Kd, often an IC50 or EC50 that approximates it; bounds were set here for any values at or beyond the usual limits of such assays
condition-parameters: source organism: Rickettsia typhi
pKd: −log10 of the molar value.
readout-label: pKd

// recorded pKd for ELYPTVNTY : ≤ 4.70

---

target-of-assay: HLA-B*08:02
procedure-text: IEDB peptide-MHC binding, purified MHC/direct/fluorescence; filed as Kd, often an IC50 or EC50 that approximates it; bounds were set here for any values at or beyond the usual limits of such assays
condition-parameters: source organism: Ravn virus - Ravn, Kenya, 1987
pKd: −log10 of the molar value.
readout-label: pKd

Field pKd (entry AEALLADGL ) reads ≤ 4.70

---

target-of-assay: HLA-B*46:01
procedure-text: IEDB peptide-MHC binding, purified MHC/competitive/fluorescence; filed as Kd, often an IC50 or EC50 that approximates it; bounds were set here for any values at or beyond the usual limits of such assays
condition-parameters: source organism: Escherichia coli 536
readout-label: Kd

Measured Kd, RVGIYFGMK : ≥ 20 µM

---

target-of-assay: HLA-A*02:03
procedure-text: IEDB peptide-MHC binding, purified MHC/direct/fluorescence; filed as Kd, often an IC50 or EC50 that approximates it; bounds were set here for any values at or beyond the usual limits of such assays
condition-parameters: source organism: Mycobacterium tuberculosis str. Haarlem
pKd: −log10 of the molar value.
readout-label: pKd

The reported pKd of the sequence VLLDSITRL was ≥ 9.00

---

target-of-assay: HLA-A*01:01
procedure-text: IEDB peptide-MHC binding, purified MHC/direct/fluorescence; filed as Kd, often an IC50 or EC50 that approximates it; bounds were set here for any values at or beyond the usual limits of such assays
condition-parameters: source organism: Sudan ebolavirus - Maleo (1979)
readout-label: Kd (nM)
Answers are plain numbers, in nM.

The reported Kd of the sequence LSDAIFDDL was 1850

---

target-of-assay: HLA-A*02:12
procedure-text: IEDB peptide-MHC binding, purified MHC/direct/fluorescence; filed as Kd, often an IC50 or EC50 that approximates it; bounds were set here for any values at or beyond the usual limits of such assays
condition-parameters: source organism: Orthohantavirus andesense
readout-label: Kd

{"sequence-chain": "RWASGVSEI", "target-of-assay": "HLA-A*02:12", "data-value": "≥ 20 µM"}

# evaluate next
// field: Kd; key: STGKSIKFK ; value = ≥ 20 µM

---

target-of-assay: HLA-B*40:01
procedure-text: IEDB peptide-MHC binding, purified MHC/competitive/radioactivity; filed as Kd, often an IC50 or EC50 that approximates it; bounds were set here for any values at or beyond the usual limits of such assays
condition-parameters: source organism: SARS coronavirus Tor2
Answer each item with its documented Kd.

Working through the 8 sequences below one at a time, give Kd for each.
1. AEIRASANLA
2. VELVAEMDG
3. KELSPRWYFY
4. FELTSMKYF
5. TERLKLFAA
6. SEMVMCGGSL
7. VEYPIIGDEL
8. WEIQQVVDA

1: 202 nM; 2: ≥ 76200 nM; 3: 8570 nM; 4: 10700 nM; 5: 19200 nM; 6: 0.475 nM; 7: 5.04 nM; 8: 1030 nM

---

target-of-assay: HLA-B*57:01
procedure-text: IEDB peptide-MHC binding, purified MHC/competitive/fluorescence; filed as Kd, often an IC50 or EC50 that approximates it; bounds were set here for any values at or beyond the usual limits of such assays
condition-parameters: source organism: Salmonella enterica subsp. enterica serovar Typhi
pKd: −log10 of the molar value.
readout-label: pKd

// HVTQHWPQL : pKd value = ≤ 4.70

---

target-of-assay: HLA-B*44:02
procedure-text: IEDB peptide-MHC binding, purified MHC/direct/fluorescence; filed as Kd, often an IC50 or EC50 that approximates it; bounds were set here for any values at or beyond the usual limits of such assays
condition-parameters: source organism: Rickettsia prowazekii
readout-label: Kd

Summary for this sequence, VVNYDNSTK : Kd is ≥ 20 µM

---

target-of-assay: HLA-A*11:01
procedure-text: IEDB peptide-MHC binding, purified MHC/direct/fluorescence; filed as Kd, often an IC50 or EC50 that approximates it; bounds were set here for any values at or beyond the usual limits of such assays
condition-parameters: source organism: Rickettsia prowazekii
readout-label: pKd
One number for each entry, as −log10 of the molar value.

Given item VVNYDNSTK , the value recorded as its pKd is 7.35

---

target-of-assay: HLA-C*08:02
procedure-text: IEDB peptide-MHC binding, purified MHC/direct/fluorescence; filed as Kd, often an IC50 or EC50 that approximates it; bounds were set here for any values at or beyond the usual limits of such assays
condition-parameters: source organism: Variola virus
readout-label: Kd (nM)
Give bare numbers, in nM.

So for YLSSWTPVV , the logged Kd turned out to be 74
